System: LOVO cells
Assay: LOVO CTG proliferation assay (120 h) (CRC, G13D)
Format: cell-based
Settings: Homo sapiens, CTG 120 h
endpoint_label: IC50
A complete answer gives the number and then names the unit.

Look at this compound and give its reported IC50. C[C@H](Oc1cc(N2CCNC3(CCC3)C2)nc(-c2noc3c2CCC[C@@]32CCCc3sc(N)c(C#N)c32)n1)[C@@H]1CCCN1C [II-40] 0.508 µM

Look at this compound and give its reported IC50. C[C@H](Oc1cc(-c2ccn(C3COC3)n2)nc(-c2noc3c2CCC[C@@]32CCCc3sc(N)c(C#N)c32)n1)[C@@H]1C[C@H](F)CN1C [II-83] 2.2 µM

Look at this compound and give its reported IC50. COCCNC(=O)c1ccn(-c2cc(O[C@@H](C)[C@@H]3[C@@H](OC)CCN3C)nc(-c3onc4c3CCC[C@@]43CCCc4sc(N)c(C#N)c43)n2)n1 [I-55] 0.039 µM

---

Assay: Caco-2 assay (permeability PappAB, PappBA, efflux ratio)
Assay type: in vitro ADME
Conditions: human, Caco-2; apical to basolateral; 10 μM test compound, pH 7.4
Procedure: The assay provides information on the potential of a compound to pass the cell membrane, on the extent of oral absorption as well as on whether the compound is actively transported by uptake and/or efflux transporters. […] Concentrations of test compounds in samples were measured by HPLC/MS/MS, samples from the donor compartment were diluted 1:50 (v:v) with assay buffer, samples from receiver compartment were measured without dilution. […]
endpoint_label: Papp A→B at 90 min, 10 μM (nm/s)
Please reply with the bare figure in nm/s and do not write the unit itself.

Look at this compound and give its reported Papp A→B at 90 min, 10 μM. C[C@H](Oc1cc(N2CC3CCC(C2)N3)nc(-c2noc3c2CCC[C@@]32CCCc3sc(N)c(C#N)c32)n1)[C@@H]1CCCN1C 4

Look at this compound and give its reported Papp A→B at 90 min, 10 μM. C[C@H](Oc1cc(N2CCC(C#N)C2)nc(-c2noc3c2CCC[C@@]32CCCc3sc(N)c(C#N)c32)n1)[C@@H]1CCCN1C (stereo partly shown) 11

Look at this compound and give its reported Papp A→B at 90 min, 10 μM. C[C@H](Oc1cc(N2CCN(C)C3(COC3)C2)nc(-c2noc3c2CCC[C@@]32CCCc3sc(N)c(C#N)c32)n1)[C@@H]1CCCN1C 14

Look at this compound and give its reported Papp A→B at 90 min, 10 μM. C[C@H](Oc1cc(N2C[C@H]3CN(C)C[C@H]3C2)nc(-c2noc3c2CCC[C@@]32CCCc3sc(N)c(C#N)c32)n1)[C@@H]1CCCN1C 4

Look at this compound and give its reported Papp A→B at 90 min, 10 μM. C[C@H](Oc1cc(N2CC[C@H](N(C)C)C2)nc(-c2noc3c2CCC[C@@]32CCCc3sc(N)c(C#N)c32)n1)[C@@H]1CCCN1C 47

Look at this compound and give its reported Papp A→B at 90 min, 10 μM. COCc1cn(-c2cc(O[C@@H](C)[C@@H]3CCCN3C)nc(-c3noc4c3CCC[C@@]43CCCc4sc(N)c(C#N)c43)n2)nn1 63

Look at this compound and give its reported Papp A→B at 90 min, 10 μM. CO[C@@H]1C[C@@H]([C@H](C)Oc2cc(-c3cnn(C)n3)nc(-c3noc4c3CCC[C@@]43CCCc4sc(N)c(C#N)c43)n2)N(C)C1 190

Look at this compound and give its reported Papp A→B at 90 min, 10 μM. CO[C@H]1CCN(C)[C@@H]1[C@H](C)Oc1cc(-n2ccc(C(N)=O)n2)nc(-c2noc3c2CCC[C@@]32CCCc3sc(N)c(C#N)c32)n1 180

Look at this compound and give its reported Papp A→B at 90 min, 10 μM. C[C@H](Oc1cc(N2CC[C@H](N3CCCC3)C2)nc(-c2noc3c2CCC[C@@]32CCCc3sc(N)c(C#N)c32)n1)[C@@H]1CCCN1C 10

Look at this compound and give its reported Papp A→B at 90 min, 10 μM. C[C@H](Oc1nc(-c2onc3c2CCC[C@@]32CCCc3sc(N)c(C#N)c32)cc(N2CCNC3(CC3)C2)n1)[C@@H]1CCCN1C 12

Look at this compound and give its reported Papp A→B at 90 min, 10 μM. CNC(=O)c1cn(-c2cc(O[C@@H](C)[C@@H]3CCCN3C)nc(-c3noc4c3CCC[C@@]43CCCc4sc(N)c(C#N)c43)n2)nn1 79

Look at this compound and give its reported Papp A→B at 90 min, 10 μM. C[C@H](Oc1cc(N2CCC[C@H](O)C2)nc(-c2noc3c2CCC[C@@]32CCCc3sc(N)c(C#N)c32)n1)[C@@H]1CCCN1C 7
